- SYSTEM UNDER TEST: BRAF G466V (Homo sapiens, UniProt P15056, G466V)
- Construct: expressed in transfected cells
- Sequence (P15056 whole entry G466V): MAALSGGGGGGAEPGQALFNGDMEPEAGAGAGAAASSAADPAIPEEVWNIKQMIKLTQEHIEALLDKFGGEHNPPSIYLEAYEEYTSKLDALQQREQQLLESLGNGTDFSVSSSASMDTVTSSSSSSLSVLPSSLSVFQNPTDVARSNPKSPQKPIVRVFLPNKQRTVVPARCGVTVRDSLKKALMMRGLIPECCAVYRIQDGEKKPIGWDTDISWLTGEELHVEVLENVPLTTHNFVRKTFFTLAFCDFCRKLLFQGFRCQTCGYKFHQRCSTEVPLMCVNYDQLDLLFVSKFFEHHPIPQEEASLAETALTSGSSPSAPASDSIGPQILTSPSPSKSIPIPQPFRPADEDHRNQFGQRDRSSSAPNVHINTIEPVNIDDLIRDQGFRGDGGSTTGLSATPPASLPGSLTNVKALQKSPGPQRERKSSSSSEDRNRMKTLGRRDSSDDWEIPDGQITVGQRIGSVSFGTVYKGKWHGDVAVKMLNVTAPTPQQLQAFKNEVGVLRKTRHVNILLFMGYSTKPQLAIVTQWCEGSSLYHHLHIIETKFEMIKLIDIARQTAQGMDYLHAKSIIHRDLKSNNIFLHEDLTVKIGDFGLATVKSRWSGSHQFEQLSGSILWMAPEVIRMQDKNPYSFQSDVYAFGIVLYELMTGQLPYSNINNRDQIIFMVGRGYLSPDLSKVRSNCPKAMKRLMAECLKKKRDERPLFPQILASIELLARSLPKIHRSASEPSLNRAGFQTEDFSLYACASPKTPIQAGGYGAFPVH
- PROCEDURE TEXT: Cellular assay of target protein degradation, T-Rex 293 cells stably transfected with HA-BRAF G466V (HA immunofluorescence, high content imaging)
- Format: cell-based
- STUDY CONDITIONS: maximum degradation observed, T-Rex 293 HA-BRAF G466V
VALUE KIND: Dmax

COMPOUND | SYSTEM UNDER TEST | Dmax
O=C1CCC(N2Cc3cc(C4CCN(CC5CCN(c6ccc(-c7cnc8[nH]cc(C(=O)c9c(F)ccc(NS(=O)(=O)N%10CC[C@@H](F)C%10)c9F)c8c7)cc6)CC5)CC4)c(F)cc3C2=O)C(=O)N1 (some centres unmarked) [Compound 157] | BRAF G466V (Homo sapiens, UniProt P15056, G466V) | > 70%
O=C1CCC(N2Cc3cc(C4CCN(C[C@@H]5CCN(c6ccc(-c7cnc8[nH]cc(C(=O)c9c(F)ccc(NS(=O)(=O)N%10CC[C@@H](F)C%10)c9F)c8c7)cc6)C[C@@H]5F)CC4)ccc3C2=O)C(=O)N1 (some centres unmarked) [Compound 125] | BRAF G466V (Homo sapiens, UniProt P15056, G466V) | > 70%
COc1cc(N2CCN(CC3CCN(c4ccc(-c5cnc6[nH]cc(C(=O)c7c(F)ccc(NS(=O)(=O)N8CC[C@@H](F)C8)c7F)c6c5)cc4)CC3)CC2)ccc1C(=O)NC1CCC(=O)NC1=O (some centres unmarked) [Compound 360] | BRAF G466V (Homo sapiens, UniProt P15056, G466V) | > 70%
O=C1CC[C@@H](NC(=O)c2ccc(N3CCC(CN4CC5(C4)CN(c4ccc(-c6cnc7[nH]cc(C(=O)c8c(F)ccc(NS(=O)(=O)N9CC[C@@H](F)C9)c8F)c7c6)cc4)C5)CC3)cc2F)C(=O)N1 [Compound 30] | BRAF G466V (Homo sapiens, UniProt P15056, G466V) | < 35%

Next:
Reported Dmax for O=C1CC[C@H](N2Cc3cc([C@@H](O)CCN4CC5(C4)CN(c4ccc(-c6cnc7[nH]cc(C(=O)c8c(F)ccc(NS(=O)(=O)N9CC[C@@H](F)C9)c8F)c7c6)cc4)C5)ccc3C2=O)C(=O)N1 [Compound 106] : what is it?
> 70%
